measurement.kind: melting point

Worked cases, melting point given:
# compound, melting point
records = [
    ("CN1CCOc2ccc(N)cc2C1=O", "165 °C"),
    ("CCOC(=O)CC(C(=O)c1ccc(Cl)cc1)C(=O)c1ccc(Cl)cc1", "108 °C"),
    ("CC(=O)N1CCN(N=Cc2ccc(F)cc2)CC1", "88 to 90 °C"),
    ("O=C1c2c([N+](=O)[O-])cccc2S(=O)(=O)N1CCO", "140 to 141 °C"),
    ("CCOC(=O)COc1cc(-n2c(=O)cc(C(F)(F)F)n(C)c2=O)c(F)cc1Cl", "98 to 101 °C"),
]

Fill in reported melting point for this entry: `CCCCc1ccccc1OCCCOc1cccc2c(=O)cc(C(=O)O)oc12`
168 °C

Fill in reported melting point for this entry: `CCOC(=O)COc1ccc(CCl)cc1OC`
64 to 66 °C

Fill in reported melting point for this entry: CN(C)C1CCCCC1Oc1ccc(Cc2c(-c3ccc(OCCN4CCCC4)cc3)sc3cc(O)ccc23)cc1 (stereo unspecified)
95 to 98 °C

Fill in reported melting point for this entry: `COc1ccc(C(O)c2ccc(OC)c(OCc3ccccc3)c2)cc1OCc1ccccc1`
103 to 105 °C

Fill in reported melting point for this entry: `CONC(=N)NC(=O)Nc1c(C)cccc1C`
78 to 80 °C

###

melting point reference

Worked cases, melting point given:
# compound, melting point
rows = [
    ("Cc1ccc(S(=O)(=O)N2[C@@H](CCC(N)=O)CC[C@H]2c2ccc(F)cc2)cc1 (racemic)", "136 °C"),
    ("CSc1ccc(NC(=O)N2CC(c3ccc(C(F)(F)F)cn3)C(c3ccc(Cl)cc3)=N2)cc1 (centres undefined)", "225 to 226 °C"),
    ("CC(CCCC(C)(C)OC1CCCCO1)C1CCC2C3CC=C4CC(O)CC(O)C4(C)C3CCC12C (centres undefined)", "130 to 132 °C"),
]

Fill in reported melting point for this entry: `Fc1ccc(Nc2ncnc3ccc(-n4cncn4)cc23)c(F)c1`
> 250 °C

Fill in reported melting point for this entry: `COC(=O)c1ccc2c(=O)n(CC(C)C)c(CNC(=O)OC(C)(C)C)c(-c3ccc(C)cc3)c2c1`
193 to 194 °C

Fill in reported melting point for this entry: CC1C(=O)Oc2cc(N3CCCCCC3)ccc21 (centres undefined)
57 to 59 °C

Fill in reported melting point for this entry: O=C(NCCOc1ccc(CC(OCc2ccccc2)C(=O)O)cc1)c1ccc(-c2ccccn2)cc1 (centres undefined)
138 to 139 °C

Fill in reported melting point for this entry: CCc1cc(C(C)O)nn1-c1ccc([N+](=O)[O-])cc1 (centres undefined)
127 to 128 °C

Fill in reported melting point for this entry: `CCOC(=O)c1c(C(F)(F)F)nc(C(F)F)c(C#N)c1CC`
38 to 40 °C

###

measurement.kind: melting point

# compound, melting point
data = [
    ("CN(O)C(=O)NCCc1ccc(Cl)c(Cl)c1", "108 to 109 °C"),
]

Attention now turns to another entry.
Fill in reported melting point for this entry: O=C(NOCC(O)CO)c1ccc(F)c(F)c1Nc1ccccc1F (centres undefined)
113 to 115 °C

###

melting point reference

Worked cases, melting point given:
# compound, melting point
rows = [
    ("COc1ccc(C2=NN(C3CCN(S(=O)(=O)c4cccc(C)c4)CC3)C(=O)C(C)(C)C2)cc1OC", "150 to 152 °C"),
    ("COCn1ccnc1C(O)(c1ccc(Cl)cc1)c1ccc(Cl)cc1", "145 to 146 °C"),
    ("CCn1cc(C(=O)O)c(=O)c2cc(F)c(N3CCC(CN)C3)c(F)c21 (stereo not given)", "219 to 221 °C"),
    ("CC(=O)N(C)N(C(=O)OC(C)(C)C)c1ccc(CC#N)cc1", "74 to 75 °C"),
    ("C=CCNc1nc(NCc2ccccc2)c2scc(C)c2n1", "97 to 98 °C"),
]

Fill in reported melting point for this entry: `COc1ccc2cc([C@H](C)C(=O)SCCCCO[N+](=O)[O-])ccc2c1`
30 to 35 °C

Fill in reported melting point for this entry: COc1ccc(C(O)CN2CCN(C(c3ccccc3)c3ccccc3)CC2)cc1OC (stereo not given)
85 °C

Fill in reported melting point for this entry: `CCCCOc1ccc(/C=C/c2cc(OC)cc(OC)c2)cc1`
54 to 56 °C

Fill in reported melting point for this entry: `CC(C)(C)OC(=O)Nc1scc(C2CC2)c1C(=O)O`
175 to 176 °C

Fill in reported melting point for this entry: `CCCCC(=O)C(=Cc1ccc(Cl)cc1)n1cncn1`
117 to 120 °C

The origin of these recorded values is a melting point compilation (Tetko et al.; mined from patent text by program, amines drawn as free bases though some values may be those of a salt).
